Assay: i.v. and p.o. exposure study, mouse
Type: in vivo
Details: liver/plasma, po, read-out: liver/plasma ratio
endpoint-name: Kp
# print the numeric value only

The value of Kp measured for the compound CCN(CC)C/C=C\c1cc(F)ccc1S(=O)(=O)Nc1ccc2c(c1C(=O)O)OC[C@@H]1C[C@H]21 (single isomer, unassigned) [Example 12] turned out to be 38

---

Target: recombinant human MetAP2 (Homo sapiens)
Construct: made in house; host or cells: Sf9 insect cells
Sequence (P50579 whole entry): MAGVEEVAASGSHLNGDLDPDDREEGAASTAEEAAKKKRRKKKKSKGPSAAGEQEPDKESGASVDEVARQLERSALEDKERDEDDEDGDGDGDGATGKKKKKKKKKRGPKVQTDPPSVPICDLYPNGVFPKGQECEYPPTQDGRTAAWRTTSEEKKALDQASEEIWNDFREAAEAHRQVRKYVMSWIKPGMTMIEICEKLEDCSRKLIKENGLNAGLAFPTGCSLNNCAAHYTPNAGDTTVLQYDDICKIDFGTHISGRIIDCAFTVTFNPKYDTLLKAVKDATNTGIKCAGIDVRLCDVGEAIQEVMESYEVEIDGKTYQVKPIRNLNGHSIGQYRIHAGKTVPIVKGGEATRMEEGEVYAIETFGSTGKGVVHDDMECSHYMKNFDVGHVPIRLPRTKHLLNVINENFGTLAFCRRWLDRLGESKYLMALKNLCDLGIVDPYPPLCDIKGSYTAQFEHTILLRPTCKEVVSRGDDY
Experiment: Recombinant human MetAP2 inhibition assay (MAS substrate, Amplex red fluorescence)
Assay type: biochemical
Conditions: first value of the cell; read-out: MetAP2/MetAP1 IC50 (nM): MetAP2
Description: Compounds are tested for their capacity to inhibit recombinant human MetAP2 activity using the following assay. Human recombinant MetAP2 expressed in Sf9 cells followed by affinity purification and EDTA treatment to remove endogenous active site cation was dialysed against MnCl2 to produce the manganese enzyme used in the assay. […] The fluorescent signal was detected using a multiwell fluorimeter. […] IC50 values are calculated using the XLfit software package (version 2.0.5).
endpoint-name: IC50 (nM)
// return numeric value only (unit: nM, not printed)

The value of IC50 measured for the compound CCN(CC)C/C=C\c1cc(F)ccc1S(=O)(=O)Nc1ccc2c(c1C(=O)O)OC[C@@H]1C[C@H]21 (single isomer, unassigned) [Example 12] turned out to be 25

---

Experiment: i.v. and p.o. exposure study, rat
Format: in vivo
Settings: liver/plasma, po, read-out: liver/plasma ratio
endpoint-name: Kp
# print the numeric value only

The value of Kp measured for the molecule CCN(CC)C/C=C\c1cc(F)ccc1S(=O)(=O)Nc1ccc2c(c1C(=O)O)OC[C@@H]1C[C@H]21 (single isomer, unassigned) [Example 12] turned out to be 39

---

Test: i.v. and p.o. exposure study, dog
Format: in vivo
Conditions: plasma, iv
Experimental: Mouse, rat and dog studies were conducted to assess i.v. and p.o. (oral) exposure.
endpoint-name: clearance

The value of clearance measured for the compound CCN(CC)C/C=C\c1cc(F)ccc1S(=O)(=O)Nc1ccc2c(c1C(=O)O)OC[C@@H]1C[C@H]21 (single isomer, unassigned) turned out to be 14 mL/min/kg

---

Test: i.v. and p.o. exposure study, dog
Assay type: in vivo
Settings: plasma, po
endpoint-name: AUC (ng·h/mL)
// return numeric value only (unit: ng·h/mL, not printed)

The value of AUC measured for the molecule CCN(CC)C/C=C\c1cc(F)ccc1S(=O)(=O)Nc1ccc2c(c1C(=O)O)OC[C@@H]1C[C@H]21 (single isomer, unassigned) turned out to be 711

---

Experiment: i.v. and p.o. exposure study, mouse
Assay type: in vivo
Conditions: plasma, po
endpoint-name: AUC (ng·h/mL)
// return numeric value only (unit: ng·h/mL, not printed)

The value of AUC measured for the compound CCN(CC)C/C=C\c1cc(F)ccc1S(=O)(=O)Nc1ccc2c(c1C(=O)O)OC[C@@H]1C[C@H]21 (single isomer, unassigned) [Example 12] turned out to be 497
